These entries and their values trace back to patent US20250288590A1.

experiment: rat pharmacokinetic studies, oral administration; format: in vivo; conditions: rat, blood; rats, oral
measured.attribute: bioavailability (%)
Give bare numbers, in %.

stdin: Given the molecule COC(=O)c1cc(OC)c2c(c1-c1c(CN3CCOCC3)cc(OC)c3c1OCO3)OCO2 , what is its reported bioavailability?
stdout: 96.3
